target.desc: TYK2 (Homo sapiens)
Sequence (P29597 whole entry): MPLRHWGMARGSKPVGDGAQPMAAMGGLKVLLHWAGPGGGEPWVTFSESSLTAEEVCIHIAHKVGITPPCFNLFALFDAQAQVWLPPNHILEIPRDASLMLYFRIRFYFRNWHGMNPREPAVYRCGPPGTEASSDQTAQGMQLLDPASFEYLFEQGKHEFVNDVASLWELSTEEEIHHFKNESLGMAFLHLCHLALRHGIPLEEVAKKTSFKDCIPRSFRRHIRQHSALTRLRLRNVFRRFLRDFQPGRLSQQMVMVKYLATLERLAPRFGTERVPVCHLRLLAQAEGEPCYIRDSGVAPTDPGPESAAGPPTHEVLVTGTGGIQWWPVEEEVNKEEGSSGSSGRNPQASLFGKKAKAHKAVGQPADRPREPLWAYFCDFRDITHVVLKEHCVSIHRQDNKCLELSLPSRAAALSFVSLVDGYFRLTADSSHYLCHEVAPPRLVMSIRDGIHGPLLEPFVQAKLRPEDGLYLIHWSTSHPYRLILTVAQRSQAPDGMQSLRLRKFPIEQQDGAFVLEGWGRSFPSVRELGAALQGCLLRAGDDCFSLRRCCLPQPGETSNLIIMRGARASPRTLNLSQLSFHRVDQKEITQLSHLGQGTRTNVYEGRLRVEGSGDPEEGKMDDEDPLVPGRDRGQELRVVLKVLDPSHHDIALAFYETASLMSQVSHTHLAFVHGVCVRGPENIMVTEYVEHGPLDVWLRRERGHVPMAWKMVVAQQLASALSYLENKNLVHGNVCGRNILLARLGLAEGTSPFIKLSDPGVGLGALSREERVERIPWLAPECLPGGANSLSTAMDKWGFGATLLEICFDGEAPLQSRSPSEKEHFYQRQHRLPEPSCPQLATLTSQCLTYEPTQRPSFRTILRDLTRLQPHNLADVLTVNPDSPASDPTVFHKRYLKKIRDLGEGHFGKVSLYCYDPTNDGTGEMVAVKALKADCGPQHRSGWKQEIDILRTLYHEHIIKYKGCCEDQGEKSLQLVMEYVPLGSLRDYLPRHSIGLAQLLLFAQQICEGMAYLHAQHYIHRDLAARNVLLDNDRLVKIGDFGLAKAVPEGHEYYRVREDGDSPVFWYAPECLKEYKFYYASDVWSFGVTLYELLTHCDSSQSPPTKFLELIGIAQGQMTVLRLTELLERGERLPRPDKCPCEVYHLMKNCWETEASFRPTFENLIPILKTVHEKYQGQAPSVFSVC
assay.protocol: TYK2 degradation MSD assay in human PBMC cells
Assay type: cell-based
Design: endogenous in cells; host or cells: human PBMC
test.parameters: 4 to 24 hours incubation, read-out: TYK2 MSD DC50 rating in human PBMC
property.measured: DC50

Please review the following examples before continuing.
{"molecule": "CNc1cc(-c2cccc(C(=O)NCCCCc3ccc4c(c3)n(C)c(=O)n4C3CCC(=O)NC3=O)c2)nn2c(C(=O)N[C@@H]3C[C@@H]3F)cnc12 (stereo partly shown)", "reported.value": "> 100 nM"}
{"molecule": "CNc1cc(Nc2cccc(-c3ccc(C(=O)N4CCC(CN5CCN(c6ccc(-c7ccc8c(c7)n(C)c(=O)n8C7CCC(=O)NC7=O)cc6)CC5)CC4)cn3)c2OC)nn2c(C(=O)N[C@@H]3C[C@@H]3F)cnc12 (stereo partly shown)", "reported.value": "> 100 nM"}
{"molecule": "CNc1cc(Nc2cccc(-c3ccc(CN4CCN(c5ccc(-c6ccc7c(c6)n(C)c(=O)n7C6CCC(=O)NC6=O)cc5)CC4)cn3)c2OC)nn2c(C(=O)NC(C)C)cnc12 (stereo not shown)", "reported.value": "> 100 nM"}
{"molecule": "CNC(=O)c1cnc(Nc2cc(C(=O)NCCCCCCCCc3cccc4c3n(C)c(=O)n4C3CCC(=O)NC3=O)ccn2)cc1Nc1cccc(-c2ncc(F)cn2)c1OC (stereo not shown)", "reported.value": "1 to 10 nM"}
{"molecule": "Cc1cc(C)cc(Nc2cc(NCCCCCCc3ccc4c(c3)n(C)c(=O)n4C3CCC(=O)NC3=O)c3ncc(C(=O)N[C@@H]4C[C@@H]4F)n3n2)c1 (stereo partly shown)", "reported.value": "> 100 nM"}
{"molecule": "CNC(=O)c1cnc(Nc2ccc(CN3CCN(C(=O)CCc4ccc5c(c4)n(C)c(=O)n5C4CCC(=O)NC4=O)CC3)cn2)cc1Nc1cccc(-c2ncc(F)cn2)c1OC (stereo not shown)", "reported.value": "< 1 nM"}
{"molecule": "CNc1cc(Nc2cccn(-c3ccc(C(=O)N4CCN([C@H]5CC[C@H](c6ccc(-c7ccc8c(c7)n(C)c(=O)n8C7CCC(=O)NC7=O)cc6)CC5)CC4)cn3)c2=O)nn2c(C(=O)N[C@@H]3C[C@@H]3F)cnc12 (stereo partly shown)", "reported.value": "< 1 nM"}
{"molecule": "CNC(=O)c1cnc(Nc2ccc(C(=O)NCCCCCCCCc3cc(N4CCCC(C(=O)Nc5ccc(=O)n(CC(=O)OC)c5)C4)ccn3)cn2)cc1Nc1cccc(-c2ncc(F)cn2)c1OC (stereo not shown)", "reported.value": "> 100 nM"}
{"molecule": "CNc1cc(Nc2cccn(-c3ccc(C(=O)N4CCN(CCOc5cccc(-c6ccc7c(c6)n(C)c(=O)n7C6CCC(=O)NC6=O)c5)CC4)cn3)c2=O)nn2c(C(=O)N[C@@H]3C[C@@H]3F)cnc12 (stereo partly shown)", "reported.value": "> 100 nM"}

--- query ---
Provide measured DC50 value, entry: CNc1cc(Nc2cccn(-c3ccc(C(=O)N4CCN([C@H]5CC[C@@H](c6ccc(-c7ccc8c(c7)n(C)c(=O)n8C7CCC(=O)NC7=O)cc6)CC5)CC4)cn3)c2=O)nn2c(C(=O)N[C@@H]3C[C@@H]3F)cnc12 (stereo partly shown) > 100 nM

This collection of values is drawn from patent US20250051338A1.
